meta.source: ChEMBL document CHEMBL1134425

Assay overview: Maximum plasma concentration dosed orally in rats
Assay type: ADME, organism-based
Design: route oral
Test settings: rat, po
Experimental readout: Cmax (ng/mL)

(a) CC(=O)N(C)[C@H](CS(=O)(=O)c1ccc(Oc2ccccc2)cc1)C(=O)NO
(b) CN(C(=O)Cc1ccncc1)[C@H](CS(=O)(=O)c1ccc(Oc2ccccc2)cc1)C(=O)NO
(c) CN[C@H](CS(=O)(=O)c1ccc(Oc2ccccc2)cc1)C(=O)NO
Give the descending Cmax ranking for the 3 compounds listed above. Write the labels, ordered according to the request.
c, a, b
(c: 6660 ng/mL, a: 2450 ng/mL, b: 710 ng/mL)

###

Experimental system: Matrix metalloproteinase (1 and 13) (Homo sapiens) (UniProt P45452+P03956)
Sequence (P03956 whole entry, looked up, other chains not shown): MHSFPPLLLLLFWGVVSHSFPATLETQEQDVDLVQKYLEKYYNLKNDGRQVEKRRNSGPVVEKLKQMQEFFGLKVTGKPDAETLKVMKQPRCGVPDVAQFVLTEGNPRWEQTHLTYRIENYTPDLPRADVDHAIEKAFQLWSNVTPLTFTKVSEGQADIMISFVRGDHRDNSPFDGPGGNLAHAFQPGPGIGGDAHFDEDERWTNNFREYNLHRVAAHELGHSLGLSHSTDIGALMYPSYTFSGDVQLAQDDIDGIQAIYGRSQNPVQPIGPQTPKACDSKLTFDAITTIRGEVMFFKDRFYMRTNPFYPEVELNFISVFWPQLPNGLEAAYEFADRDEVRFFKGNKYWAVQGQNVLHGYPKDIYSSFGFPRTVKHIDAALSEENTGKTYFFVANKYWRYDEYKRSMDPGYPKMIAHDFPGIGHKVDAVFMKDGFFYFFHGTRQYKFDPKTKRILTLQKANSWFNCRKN
Assay overview: Selectivity for Matrix metalloprotease-1 over Matrix metalloprotease-13
Format: protein assay
Experimental readout: Selectivity

Known results for molecules:
| Molecule | Selectivity |
| --- | --- |
| COc1ccc(S(=O)(=O)CC(NC(=O)OC(C)(C)C)C(=O)NO)cc1 (stereo not given) | 100 |
| CN(C(=O)Cc1ccncc1)[C@H](CS(=O)(=O)c1ccc(Oc2ccccc2)cc1)C(=O)NO | 130 |
| CC(C)(C)OC(=O)N[C@H](CS(=O)(=O)c1ccc(Oc2ccccc2)cc1)C(=O)NO | 1600 |
| CN[C@H](CS(=O)(=O)c1ccc(Oc2ccccc2)cc1)C(=O)NO | 1100 |

(a) O=C(N[C@H](CS(=O)(=O)c1ccc(Oc2ccccc2)cc1)C(=O)NO)c1ccncc1
(b) COc1ccc(S(=O)(=O)CC(N)C(=O)NO)cc1 (stereo not given)
I'd appreciate it if you could identify which of a and b has the greater Selectivity. Please reply using the label of the selected record.
a

###

Assay overview: Maximum plasma concentration dosed orally in rats
Type: ADME, organism-based
Parameters: route oral
Test settings: rat, po
Experimental readout: Cmax

These solved cases illustrate the format of a correct answer.
| Chemical string | Cmax |
| --- | --- |
| COc1cccc(OC)c1C(=O)N[C@H](CS(=O)(=O)c1ccc(Oc2ccccc2)cc1)C(=O)NO | < 200 ng/mL |
| CC(C)(C)OC(=O)N[C@H](CS(=O)(=O)c1ccc(Oc2ccccc2)cc1)C(=O)NO | < 200 ng/mL |

We now examine a further molecule.
Looking for the measured Cmax of O=C(N[C@H](CS(=O)(=O)c1ccc(Oc2ccccc2)cc1)C(=O)NO)c1ccncc1 , can you help?
< 200 ng/mL

###

Experimental system: Matrix metalloproteinase (1 and 13) (Homo sapiens) (UniProt P45452+P03956)
Assay overview: Selectivity for Matrix metalloprotease-1 over Matrix metalloprotease-13
Assay type: protein assay
Experimental readout: Selectivity

The cases that follow already have their Selectivity on record.
| Compound | Experimental readout | Result |
| --- | --- | --- |
| CC(=O)NC(CS(=O)(=O)c1ccc(Sc2ccccc2)cc1)C(=O)NO (centres undefined) | Selectivity | > 1700 |
| O=C(NC(CS(=O)(=O)c1ccc(Sc2ccccc2)cc1)C(=O)NO)OCc1ccccc1 (centres undefined) | Selectivity | > 2700 |
| COc1cccc(OC)c1C(=O)N[C@H](CS(=O)(=O)c1ccc(Oc2ccccc2)cc1)C(=O)NO | Selectivity | 870 |

Let's switch to this compound now.
// query Selectivity value for entry O=C(CNC(=O)OCc1ccccc1)NC(CS(=O)(=O)c1ccc(Sc2ccccc2)cc1)C(=O)NO (centres undefined)
> 12000
